Readings of z-score for the listed molecules
- method_description: HepG2 liver cancer cell viability effects, profiling panel, resazurin fluorescence, 24 h, PK04 Diversity Set (AID 1172); also: test concentration not given here
- cond: higher = more signal
Please respond with just the number, no unit label.

Please review the entries below; each comes with its answer.
>>> quantitative_result("COCCOC(=O)N1C(=O)[C@@]2(c3cc(C#CC4=CCCCC4)ccc31)[C@H](c1ccccc1OCCO)N1[C@H](c3ccccc3)[C@H](c3ccccc3)OC(=O)[C@H]1[C@@H]2C(=O)N1CCCCCCC1")
0.133
>>> quantitative_result("CC(C)[Si](C#C[Si](C(C)C)(C(C)C)C(C)C)(O[C@H](C)c1cn([C@H](CO)Cc2ccccc2)nn1)C(C)C")
0.967
>>> quantitative_result("O=c1n(-c2ccccc2)c(=O)n2n1CC(COc1ccccc1)=C([C@H](O)CCc1ccccc1)[C@@H]2CO")
-0.633
>>> quantitative_result("COc1cc(OC)c(C(O)C2C=CC3C(=O)N(c4ccccc4)C(=O)C3N2Nc2ccccc2)cc1Br (configuration not stated)")
0.222
>>> quantitative_result("CC(C)C(CO)N1C(=O)[C@@H]2C3C(=O)OCCC/C=C\\[C@H]3OC23C=CCN(C(C)(C)C)C(=O)[C@@H]13 (some centres not stated)")
-0.263
>>> quantitative_result("C=C[C@@H](COC(C)=O)N(C(=O)OC(C)(C)C)S(=O)(=O)c1ccc(Br)cc1")
-0.19

Read the next record carefully.
Inquiry: Could you share which z-score value was measured for COC(=O)[C@@]1(Cc2ccccc2)[C@H]2c3cc(C(=O)N(C)C)n(Cc4c(CO)[nH]cc(C)c4=O)c3C[C@H]2CN1C(=O)c1ccccc1 ?
Reply text: -0.613
